- System: ovarian cancer cell lines (A2780 and A2780cis)
- assayDetails: Cytotoxicity stated jointly for both ovarian cancer cell lines
pIC50: −log10 of the molar value.
// pIC50 lookup, one value per entry
observationType: pIC50

{"columns": ["molSmiles", "observed"],
 "data": [
  ["[I][Pt-2]([I])([c]1n(Cc2ccccc2)cc[n+]1Cc1ccccc1)[n+]1ccccc1", "~6.00"],
  ["Cn1cc[n+](C)[c]1[Pt-2]([I])([I])[n+]1ccccc1", "~5.52"]
]}

* * *

- Test system: ovarian cancer cell lines (A2780 and A2780cis)
- assayDetails: Cytotoxicity stated jointly for both ovarian cancer cell lines
- assayContext: read-out: Cytotoxicity (IC50) in the ovarian cancer cell lines; A2780 and A2780cis together, approximate text values, 72 h; listed as Pt2^S
observationType: IC50

{"columns": ["molSmiles", "observed"],
 "data": [
  ["[I][Pt-2]([I])([c]1occ[n+]1Cc1ccccc1)[n+]1ccccc1", "~8 µM"]
]}
